These entries and their values trace back to patent US10711314B2.

- tgt: IDH1 R132S (Homo sapiens, UniProt O75874, R132S)
- Construct: The resultant fragments for IDH1 (full length) and IDH2 (residues 40-452) were cloned into vector pET41a; made in house; host or cells: E. coli Rosetta
- Sequence (O75874 whole entry R132S, the tested form may be a part): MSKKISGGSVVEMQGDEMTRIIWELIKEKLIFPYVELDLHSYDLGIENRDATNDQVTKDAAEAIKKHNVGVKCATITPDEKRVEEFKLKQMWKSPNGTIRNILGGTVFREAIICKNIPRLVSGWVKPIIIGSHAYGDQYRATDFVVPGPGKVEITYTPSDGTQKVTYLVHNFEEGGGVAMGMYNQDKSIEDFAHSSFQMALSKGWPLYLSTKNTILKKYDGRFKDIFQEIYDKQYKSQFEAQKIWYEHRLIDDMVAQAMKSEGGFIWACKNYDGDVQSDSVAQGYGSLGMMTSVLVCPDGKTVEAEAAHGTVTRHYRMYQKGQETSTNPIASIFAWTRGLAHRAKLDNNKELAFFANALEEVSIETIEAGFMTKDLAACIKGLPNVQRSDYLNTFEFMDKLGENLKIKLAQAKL
- experiment_description: Inhibition of oxidative decarboxylation of isocitrate to α-KG by IDH1 R132S
- Assay type: biochemical
- measurement_conditions: IDH1R132S 30 ug/ml; competitive with isocitrate; NADP 0.5 mM; read-out: Oxalomalate Ki
quantity_kind: pKi
One number for each entry, as −log10 of the molar value.

Just so you know, measured pKi for O=C(O)C(=O)C(C(=O)O)C(O)C(=O)O (stereo not shown) [Oxalomalate, oxalomalate] came out at 3.29
